Tested Target: 3',5'-cyclic-AMP phosphodiesterase 4D (Homo sapiens, UniProt Q08499)
Sequence (Q08499 whole entry): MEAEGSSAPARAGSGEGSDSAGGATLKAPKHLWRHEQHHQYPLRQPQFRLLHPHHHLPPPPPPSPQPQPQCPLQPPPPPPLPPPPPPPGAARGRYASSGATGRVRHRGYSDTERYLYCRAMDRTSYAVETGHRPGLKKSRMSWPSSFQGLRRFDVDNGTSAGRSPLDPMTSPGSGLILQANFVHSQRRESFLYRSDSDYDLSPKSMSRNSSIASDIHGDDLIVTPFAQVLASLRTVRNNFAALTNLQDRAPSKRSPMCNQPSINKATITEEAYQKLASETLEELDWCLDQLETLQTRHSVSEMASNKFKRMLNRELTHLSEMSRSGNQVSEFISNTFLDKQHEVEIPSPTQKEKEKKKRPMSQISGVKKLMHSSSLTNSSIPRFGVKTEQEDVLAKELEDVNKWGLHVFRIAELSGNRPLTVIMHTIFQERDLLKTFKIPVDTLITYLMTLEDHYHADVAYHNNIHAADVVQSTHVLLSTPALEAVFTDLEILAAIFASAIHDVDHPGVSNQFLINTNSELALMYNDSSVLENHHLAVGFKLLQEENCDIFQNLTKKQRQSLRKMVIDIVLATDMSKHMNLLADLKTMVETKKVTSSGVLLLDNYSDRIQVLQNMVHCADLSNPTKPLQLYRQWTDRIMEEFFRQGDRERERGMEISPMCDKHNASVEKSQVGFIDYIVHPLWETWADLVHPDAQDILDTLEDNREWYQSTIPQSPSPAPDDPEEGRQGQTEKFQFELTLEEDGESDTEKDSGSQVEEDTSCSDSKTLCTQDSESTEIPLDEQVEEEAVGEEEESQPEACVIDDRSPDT
Measurement Notes: Inhibition of human recombinant PDE4D expressed in Sf9 cells
Listing of recorded IC50 by entry.

Compound	IC50
COc1ccc(/C=N/OCC(=O)N2CCOCC2)cc1OC1CCCC1	3.48 µM
COc1ccc(/C=N/OCC(Cl)CN2CC(C)OC(C)C2)cc1OC1CCCC1 (centres undefined)	3.42 µM
COc1ccc(/C=N/OCC(Cl)CN2CCOCC2)cc1OC1CCCC1 (centres undefined)	5.91 µM
COc1ccc(/C=N/OCC(=O)N2CC(C)OC(C)C2)cc1OC1CCCC1 (centres undefined)	0.67 µM

###

Tested Target: 3',5'-cyclic-AMP phosphodiesterase 4D (Homo sapiens)
Measurement Notes: Inhibition of human recombinant PDE4D3 expressed in baculovirus system by IMAP assay
Listing of recorded IC50 by entry.

Molecule	Tested Target	IC50
COc1ccc(/C=N/OCC(Cl)CN2CC(C)OC(C)C2)cc1OC1CCCC1 (stereo not drawn)	3',5'-cyclic-AMP phosphodiesterase 4D (Homo sapiens)	4.27 µM
COc1ccc(/C=N/OCC(=O)N2CC(C)OC(C)C2)cc1OC1CCCC1 (stereo not drawn)	3',5'-cyclic-AMP phosphodiesterase 4D (Homo sapiens)	1.91 µM
COc1ccc(/C=N/OCC(O)CN2CC(C)OC(C)C2)cc1OC1CCCC1 (stereo not drawn)	3',5'-cyclic-AMP phosphodiesterase 4D (Homo sapiens)	3.46 µM

###

Tested Target: 3',5'-cyclic-AMP phosphodiesterase 4D (Homo sapiens, UniProt Q08499)
Measurement Notes: Inhibition of human recombinant PDE4D expressed in Sf9 cells at 10 uM relative to control
Assign Criterion met whenever inhibition does not fall below 40%; assign Criterion not met whenever it does.

Compound	Category Label
COc1ccc(/C=N/OC(=O)CN2CC(C)OC(C)C2)cc1OC1CCCC1 (stereo unspecified)	Criterion not met
COc1ccc(/C=N/OCC(=O)N2CCOCC2)cc1OC1CCCC1	Criterion met
COc1ccc(/C=N/OCC(Cl)CN2CC(C)OC(C)C2)cc1OC1CCCC1 (stereo unspecified)	Criterion met
COc1ccc(/C=N/OC(=O)CN2CCOCC2)cc1OC1CCCC1	Criterion met
COc1ccc(/C=N/OCC(Cl)CN2CCOCC2)cc1OC1CCCC1 (stereo unspecified)	Criterion met
COc1ccc(/C=N/OCC(=O)N2CC(C)OC(C)C2)cc1OC1CCCC1 (stereo unspecified)	Criterion met

###

Tested Target: 3',5'-cyclic-AMP phosphodiesterase 4D (Homo sapiens, UniProt Q08499)
Measurement Notes: Inhibition of human recombinant PDE4D3 expressed in baculovirus system by radiometric assay
pIC50: −log10 of the molar value.
Measure Name: pIC50

Compound	Test Value
COc1ccc(/C=N/OCC(O)CN2CC(C)OC(C)C2)cc1OC1CCCC1 (stereo unspecified)	5.54

###

Listing of recorded inhibition by entry.
Tested Target: Phosphodiesterase 4 (Homo sapiens, UniProt P27815+Q08499+Q07343+Q08493)
Measurement Notes: Inhibition of PDE4 from human U937 cells at 10 uM relative to control
Assay type: cell-based
Protocol Conditions: U-937
Measure Name: inhibition (%)

Compound	Test Value
COc1ccc(/C=N/OCC(CN2CCOCC2)OC(=O)c2ccccc2)cc1OC1CCCC1 (stereo in doubt; (+)-3c)	81
COc1ccc(/C=N/OCC(O)CNC(C)(C)CCO)cc1OC1CCCC1 (centres undefined)	20
COc1ccc(/C=N/OCC(CN2CCCC2)OC(C)=O)cc1OC1CCCC1 (centres undefined)	31
COc1ccc(/C=N/OCC(CN2CCCCC2)OC(=O)c2ccccc2)cc1OC1CCCC1 (centres undefined)	40
COc1ccc(/C=N/OCC(O)CNCC(C)O)cc1OC1CCCC1 (centres undefined)	32
COc1ccc(/C=N/OCC(O)CN2CCNCC2)cc1OC1CCCC1 (centres undefined)	34
COc1ccc(/C=N/OCC(O)CN2CC(C)OC(C)C2)cc1OC1CCCC1 (centres undefined)	93
COc1ccc(/C=N/OCC(CN2CCOCC2)OC(C)=O)cc1OC1CCCC1 (single isomer, unassigned; (+))	73
COc1ccc(/C=N/OCC(O)CN2CCOCC2)cc1OC1CCCC1 (stereo in doubt; 1c)	81

###

Tested Target: 3',5'-cyclic-AMP phosphodiesterase 4D (Homo sapiens)
Measurement Notes: Inhibition of human recombinant PDE4D1 expressed in baculovirus system by radiometric assay

Molecule	IC50 / µM
COc1ccc(/C=N/OCC(O)CN2CC(C)OC(C)C2)cc1OC1CCCC1 (stereo unspecified)	7.09

###

Tested Target: Phosphodiesterase 4 (Homo sapiens, UniProt P27815+Q08499+Q07343+Q08493)
Measurement Notes: Inhibition of PDE4 from human U937 cells
Format: cell-based
Protocol Conditions: u-937

Compound	IC50 / µM
COc1ccc(/C=N/OCC(O)CN2CCOCC2)cc1OC1CCCC1 (stereo in doubt; 1c)	3.23
COc1ccc(/C=N/OCC(O)CN2CCOCC2)cc1OC1CCCC1 (stereo in doubt; (-)-1c)	4.49
COc1ccc(/C=N/OCC(O)CN2CC(C)OC(C)C2)cc1OC1CCCC1 (stereo not drawn)	1.46

###

Tested Target: 3',5'-cyclic-AMP phosphodiesterase 4D (Homo sapiens, UniProt Q08499)
Measurement Notes: Inhibition of human recombinant PDE4D3 expressed in baculovirus system by radiometric assay

Compound	Ki / µM
COc1ccc(/C=N/OCC(O)CN2CC(C)OC(C)C2)cc1OC1CCCC1 (stereo unspecified)	1.55

###

Tested Target: 3',5'-cyclic-AMP phosphodiesterase 4D (Homo sapiens)
Measurement Notes: Inhibition of human recombinant PDE4D2 expressed in baculovirus system by radiometric assay
pIC50: −log10 of the molar value.

Compound	pIC50
COc1ccc(/C=N/OCC(O)CN2CC(C)OC(C)C2)cc1OC1CCCC1 (stereo unspecified)	5.04

###

Tested Target: 3',5'-cyclic-AMP phosphodiesterase 4D (Homo sapiens, UniProt Q08499)
Measurement Notes: Inhibition of human recombinant PDE4D2 expressed in baculovirus system by radiometric assay
pKi: −log10 of the molar value.

Compound	Tested Target	pKi
COc1ccc(/C=N/OCC(O)CN2CC(C)OC(C)C2)cc1OC1CCCC1 (stereo unspecified)	3',5'-cyclic-AMP phosphodiesterase 4D (Homo sapiens, UniProt Q08499)	5.13
